System: MDA-MB-468 breast
Experiment: NCI tumour cell line growth inhibition, 48 h

>  <compound>
CCc1nc2cc(/C=C/C(=O)NO)ccc2c(=O)n1CCc1ccc(OC)cc1

>  <GI50>
1690 nM

$$$$
>  <compound>
CC(=O)Nc1cccc(Nc2nc(NCc3ccccc3)c3ccccc3n2)c1

>  <GI50>
1540 nM

$$$$
>  <compound>
Cc1noc(C)c1-c1cnc2c(-c3ccc(C(=O)O)cc3)cn([C@@H](C)c3ccccn3)c2c1

>  <GI50>
309 nM

$$$$
>  <compound>
COc1cc(-c2nccc3cc4c(cc23)OCO4)cc(OC)c1OC

>  <GI50>
1620 nM

$$$$
>  <compound>
O=C1Nc2ccccc2/C1=C/c1cn(CC(O)Cn2cc(/C=C3\C(=O)Nc4ccccc43)c3ccccc32)c2ccccc12 (configuration not stated)

>  <GI50>
2030 nM

$$$$
>  <compound>
COc1ccc(-c2n[nH]nc2-c2cc(OC)c3c(c2)OCO3)cc1

>  <GI50>
23 nM

$$$$
>  <compound>
NC(CSC(c1ccccc1)(c1ccccc1)c1ccc(F)cc1)C(=O)O (configuration not stated)

>  <GI50>
233 nM

$$$$
>  <compound>
COc1cc(CN(c2ccc(C)cc2)C2OC(=O)c3ccccc32)cc(OC)c1OC (configuration not stated)

>  <GI50>
132 nM

$$$$
>  <compound>
C[C@H](NC(=O)c1c(C(F)F)nn(C)c1Oc1cccc(C(F)(F)F)c1)c1ccc(C(=O)O)cc1

>  <GI50>
> 100000 nM

$$$$
>  <compound>
CCCCCCNC(=O)Oc1ccc(/C(=C(\C)c2ccc(Cl)cc2)c2ccc(OCCN(C)C)cc2)cc1

>  <GI50>
1590 nM

$$$$
>  <compound>
NCCOc1ncccc1/C=C1\c2ccccc2-c2ccc([N+](=O)[O-])cc21

>  <GI50>
71.2 nM

$$$$
>  <compound>
CCc1nn2ncccc2c1-c1ccnc(NC2CC2)n1

>  <GI50>
> 21200 nM

$$$$

====

Test system: MDA-MB-468 breast
Test: NCI tumour cell line growth inhibition, 48 h
Quick rule for you: TGI at 4 µM or higher means 1, lower means -1.

>  <molecule>
C[C@H](NC(=O)c1c(C(F)F)nn(C)c1Oc1cccc(C(F)(F)F)c1)c1ccc(C(=O)O)cc1

>  <discrete label>
1

$$$$
>  <molecule>
COc1cc(Nc2ncnc(Nc3ccc4c(n3)NC(=O)C(C)(C)O4)n2)cc(OC)c1OC

>  <discrete label>
1

$$$$
>  <molecule>
Oc1c(O)c(Cl)c(Cl)c(Cl)c1Cl

>  <discrete label>
1

$$$$
>  <molecule>
COc1cc(-c2nccc3cc4c(cc23)OCO4)cc(OC)c1OC

>  <discrete label>
1

$$$$
>  <molecule>
CCN(CC)c1ccc2nc3ccc(N=Nc4ccc(O)cc4)cc3[n+](-c3ccccc3)c2c1

>  <discrete label>
-1

$$$$
>  <molecule>
O=C1Nc2ccccc2/C1=C/c1cn(CC(O)Cn2cc(/C=C3\C(=O)Nc4ccccc43)c3ccccc32)c2ccccc12 (stereo not given)

>  <discrete label>
-1

$$$$
>  <molecule>
CCc1nn2ncccc2c1-c1ccnc(NC2CC2)n1

>  <discrete label>
1

$$$$
>  <molecule>
COc1ccc2c(c1)O/C(=C\c1cccc(OCC(=O)Nc3nc(C)c(C)s3)c1)C2=O

>  <discrete label>
-1

$$$$
>  <molecule>
O=C(NCCCCC(c1ccc(F)cc1)c1ccc(F)cc1)Nc1ccc([N+](=O)[O-])c(C(F)(F)F)c1

>  <discrete label>
-1

$$$$
>  <molecule>
CCc1nc2cc(/C=C/C(=O)NO)ccc2c(=O)n1CCc1ccc(OC)cc1

>  <discrete label>
1

$$$$
>  <molecule>
COc1cc(-c2cc3ncccc3c3[nH]c(=O)c4cccnc4c23)cc(OC)c1OC

>  <discrete label>
1

$$$$
>  <molecule>
CN1CCN(CCCOc2cccc3nc(Nc4ccc(F)c(F)c4)ccc23)CC1

>  <discrete label>
1

$$$$
>  <molecule>
COc1ccc(-c2n[nH]nc2-c2cc(OC)c3c(c2)OCO3)cc1

>  <discrete label>
1

$$$$
>  <molecule>
CC/C(Cc1ccccc1)=C(/c1ccc(O)cc1)c1ccc(OCCN2CCCC2)cc1

>  <discrete label>
-1

$$$$
>  <molecule>
COc1ccc(-c2nn3ncccc3c2-c2ccnc(Nc3ccc4c(c3)OCCO4)n2)cc1

>  <discrete label>
1

$$$$
